Measured values drawn from PubChem BioAssay AID1745850 for this set.

assay: Viability Counterscreen for Confirmatory qHTS for Inhibitors of ATXN expression; settings: HEK-293 ATXN2-luc cells viability, CellTiter-Fluor, 24 h; further: nearly all actives have a fitted effect of over 50% in size
Hit rate of the full screen: of about 2,100 compounds, about 260 (12%) were called active. About 58% were inconclusive and are not listed. The call rests on the fitted dose curve; in most records, active means well fitted cell-killing curve with a large enough effect; inconclusive means small, poorly fitted or top-dose-only effect, or effect the other way; inactive means flat fitted curve, though single readings scatter. The list shows a part of the results.
Bench note: report the call from active, inactive

O=C(CNS(=O)(=O)c1ccc([N+](=O)[O-])cc1)N/N=C/c1ccc(O)cc1O ... inactive

Incoming: Call for entry `OC[C@@H]1[C@@H](c2ccc(F)cc2)C(c2ccccc2)=NN1c1ccccc1` :
Outgoing: inactive

Incoming: What would you report for `CC(C)(C)c1ccc(Oc2ccc(N)cn2)cc1` ?
Outgoing: inactive

Incoming: // same read-out, input: CC1=CC(C)(C)N2C(=O)C3(SCC(=O)N3c3ccc(F)cc3)c3cc(C)cc1c32 (centres undefined)
Outgoing: inactive

Incoming: Same lookup for `Cc1ccc(NC(=O)CCC(=O)c2cc(C)sc2C)nc1` , please.
Outgoing: inactive

Incoming: // next record `C=CCOc1ccc(CNc2ccc3[nH]c(=O)[nH]c3c2)cc1OC`
Outgoing: inactive

Incoming: Let us now turn to `COc1ccccc1N1CCN(Cc2ccc(O)c3ncccc23)CC1`
Outgoing: active

====

test: Viability Counterscreen for Confirmatory qHTS for Inhibitors of ATXN expression; settings: HEK-293 ATXN2-luc cells viability, CellTiter-Fluor, 24 h; further: nearly all actives have a fitted effect of over 50% in size
Among all 2,100 compounds or so, about 260 (12%) were called active. Inconclusive results (about 58%) are left out. Calls follow the shape of the dose curve; as a rule, active = well fitted cell-killing curve with a large enough effect; inconclusive = small, poorly fitted or top-dose-only effect, or effect the other way; inactive = flat fitted curve, though single readings scatter. The list shows a part of the results.
Could you please pick one outcome from this set? yes for active, no for inactive

Consider the following illustrative entries.
O=C(CCCN1C(=O)S/C(=C\c2ccccc2)C1=O)NNC(=O)c1ccccc1O ... no
CCN(CC)c1ccc(/C=N/NC(=O)CNC(=O)C2COc3ccccc3O2)c(O)c1 (stereo not given) ... no
Cc1ccc(NC(=O)COc2ccc(/C=C3/SC(=Nc4ccccc4)N(Cc4cccnc4)C3=O)cc2)cc1 ... yes
COC(=O)c1ccc(/C=C2/SC(=S)N(CCCC(=O)Nc3ccccn3)C2=O)cc1 ... yes

From here, focus on the item given below.
Incoming: // param item: `CC(=O)Oc1ccc(Nc2ccccc2)cc1` ; yields the recorded call
Outgoing: no

====

assay: Viability Counterscreen for Confirmatory qHTS for Inhibitors of ATXN expression; settings: HEK-293 ATXN2-luc cells viability, CellTiter-Fluor, 24 h; further: nearly all actives have a fitted effect of over 50% in size
Hit rate of the full screen: of about 2,100 compounds, about 260 (12%) were called active. Inconclusive results (about 58%) are left out. The call rests on the fitted dose curve; in most records, active means well fitted cell-killing curve with a large enough effect; inconclusive means small, poorly fitted or top-dose-only effect, or effect the other way; inactive means flat fitted curve, though single readings scatter. The list shows a part of the results.
The reply should name one outcome from Y = active, N = inactive

Cc1ccc(Nc2c(-c3ccccn3)nc3cc(C)ccn23)cc1 ... Y
Cc1ccc(Nc2c(-c3ccccn3)nc3cccc(C)n23)cc1 ... Y
C(=N\NC(=Nc1ccccc1)c1ccccn1)/c1ccccn1 ... N
CC1CCCN(c2ncnc3c2cnn3-c2ccc(Cl)cc2)C1 (stereo not drawn) ... N
Cc1ccc(C)n1-c1ccc(C(=O)N2CCC(C(N)=O)CC2)cc1 ... N

Incoming: How did this test come out for `O=C(CSCC(=O)Nc1ccccc1)N/N=C/c1c(O)ccc2ccccc12` ?
Outgoing: N

Incoming: Again, but for `Cc1ccc(Cc2cnc(NC(=O)/C(C#N)=C/c3ccc(-c4cccc([N+](=O)[O-])c4)o3)s2)cc1`
Outgoing: Y

Incoming: // next record `CCOC(=O)N(C)c1c(CC)nc2c(OCc3ccccc3OC)cccn12`
Outgoing: N

Incoming: Also need `CC(=O)c1sc(C(C)(C)C)cc1NC(=O)/C=C/C(=O)O` , thanks.
Outgoing: N
